Each record here notes measured Leak of Dye.
# System: PCA (passive cutaneous anaphylaxis) reaction
# experiment.summary: Anti-allergic effect: PCA (passive cutaneous anaphylaxis) reaction in rats
# Assay type: in vivo, rats (Wister-strain, male)
# conditions.used: 50 mg/kg, oral, 1 hour before challenge, control 10.7 ± 1.0
Answer with the value and then the unit.

Known results for molecules:
{"test.smiles": "Cn1c(=O)c2cncnc2n(C)c1=O", "Leak of Dye": "4.1 ± 0.8 μg/site"}
{"test.smiles": "Cn1c(=O)c2cnc(C(F)(F)F)nc2n(C)c1=O", "Leak of Dye": "6.6 ± 1.1 μg/site"}

The molecule listed as Cn1c(=O)c2cnc(N)nc2n(C)c1=O shows Leak of Dye equal to 2.3 ± 0.7 μg/site

The molecule listed as Cc1ncc2c(=O)n(C)c(=O)n(C)c2n1 shows Leak of Dye equal to 4.2 ± 0.5 μg/site

The molecule listed as Cn1c(=O)c2cnc(-c3ccccc3)nc2n(C)c1=O shows Leak of Dye equal to 8.2 ± 0.9 μg/site

The molecule listed as CNc1ncc2c(=O)n(C)c(=O)n(C)c2n1 shows Leak of Dye equal to 2.8 ± 0.7 μg/site
